Data origin, for the record: PubChem BioAssay

Recorded viability, one value per entry.
Protocol Details: reversal of MRP1-mediated doxorubicin resistance, pilot screen, H69AR cells, doxorubicin co-treatment (AID 601)
Particulars: H69AR cells, CellTiter-Glo, 72 h; compound alone cytotoxicity; at 10 µM

{"Cpd Smiles": "Cc1onc(-c2c(Cl)cccc2Cl)c1C(N)=O", "viability [%]": 106}
{"Cpd Smiles": "CCOC(=O)N1CCN(c2cc(=O)n(-c3ccc(OCC)cc3)c(=O)[nH]2)CC1", "viability [%]": 97.5}
{"Cpd Smiles": "CC(=O)Nc1cccc(NC(=O)c2oc3ccccc3c2C)c1", "viability [%]": 68.9}
{"Cpd Smiles": "O=C(CN1CCCC1)Nc1ccc(NC(=O)Nc2ccccc2)cc1", "viability [%]": 95.3}
{"Cpd Smiles": "COc1cccc(CNC(=O)C2CCN(S(=O)(=O)c3ccc(F)cc3)CC2)c1", "viability [%]": 97.5}
